// reported aptazyme ON/OFF ratio per item
B1: Pistol ribozyme (parent)
chain: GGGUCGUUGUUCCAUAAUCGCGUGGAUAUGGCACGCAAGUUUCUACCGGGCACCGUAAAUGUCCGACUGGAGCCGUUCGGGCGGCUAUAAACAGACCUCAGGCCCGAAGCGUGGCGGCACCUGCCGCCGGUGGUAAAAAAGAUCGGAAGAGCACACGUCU

Variants of: B1
ASSAY: aptazyme ON/OFF ratio, guanine; higher = stronger switching; co-transcriptional cleavage with and without guanine
Would you mind answering with just the numeric figure?

See these solved cases before continuing.
1. U7C U8C G9A U10A C13A
1.15
2. U7G U8A U10A C12G C13A
1.23
3. U8A G9U U10A U11G C13A
1.23

*Q* Find the recorded aptazyme ON/OFF ratio belonging to U7A U8C G9A U11C C12A and report it.
*A* 1.21

*Q* Endpoint output: aptazyme ON/OFF ratio of U7A U8A G9C U10A . Value?
*A* 1.27

*Q* Requested field: aptazyme ON/OFF ratio. Item: U8A G9C U10C U11A C12U C13A
*A* 1.07

*Q* Consider the variant U7C C12A C13A and give its measured aptazyme ON/OFF ratio.
*A* 1.16

*Q* What does the data say about its aptazyme ON/OFF ratio? Entry: U7G G9U U10G U11C C12G C13G
*A* 1.07

*Q* # get_value(readout='aptazyme ON/OFF ratio', item= U8G U10C C13U )
*A* 1.15

*Q* Name the reported aptazyme ON/OFF ratio value associated with the variant G9A U10C C12A C13U
*A* 1.19

*Q* Which measured aptazyme ON/OFF ratio value corresponds to U7C G9C U10C U11C C12U C13G ?
*A* 1.02

*Q* Recorded aptazyme ON/OFF ratio for U8G U10G C12A , please?
*A* 1.39
